The values you see were collected from patent US4593036A.

Entries and their measured FG 8033 is better by: 5-HT Potentiation % follow.
test system: 5-HT uptake; test: Test 173: potentiation of 5-HTP (5-hydroxytryptophane) induced hypermotility in mice (inhibition of 5HT uptake, or 5HT potentiation, test); format: in vivo, mice (female, NMRI strain); conditions: FG 8033 compared with the listed compound, mice s.c.
Just the number please, in %, no unit attached.

Qu. FG 8033 is better by: 5-HT Potentiation % of COc1ccc(OC[C@H]2CNCC[C@@H]2c2ccccc2)cc1 (single isomer, unassigned) [FG 4996, reference compound] on 5-HT uptake?
Ans. 1800

Qu. FG 8033 is better by: 5-HT Potentiation % of COc1ccc(OC[C@@H]2CN(C)CC[C@H]2c2ccc(F)cc2)cc1 (relative stereo) on 5-HT uptake?
Ans. 260

Qu. FG 8033 is better by: 5-HT Potentiation % of COc1ccc(OC[C@@H]2CNCC[C@H]2c2ccccc2)cc1 (single isomer, unassigned) [FG 7006, reference compound] on 5-HT uptake?
Ans. 4000

Qu. FG 8033 is better by: 5-HT Potentiation % of CC(=O)O.COc1ccc(OC[C@@H]2CNCC[C@H]2c2ccc(F)cc2)cc1 (single isomer, unassigned) on 5-HT uptake?
Ans. 4400

###

Entries and their measured FG 8033 is better by: T.I. Factor follow.
tested on: mice; assay: in vivo; conditions: FG 8033 compared with the listed compound, mice s.c.
Lab note: jot the number down without any unit.

See these solved cases before continuing.
[
  {
    "compound": "COc1ccc(OC[C@@H]2CNCC[C@H]2c2ccccc2)cc1 (single isomer, unassigned) [FG 7006, reference compound]",
    "reported metric": "FG 8033 is better by: T.I. Factor",
    "numeric value": 44.44
  },
  {
    "compound": "COc1ccc(OC[C@H]2CNCC[C@@H]2c2ccccc2)cc1 (single isomer, unassigned) [FG 4996, reference compound]",
    "reported metric": "FG 8033 is better by: T.I. Factor",
    "numeric value": 57.14
  }
]

Qu. Would you mind telling me what FG 8033 is better by: T.I. Factor value was observed for COc1ccc(OC[C@@H]2CN(C)CC[C@H]2c2ccc(F)cc2)cc1 (relative stereo) ?
Ans. 1.74

Qu. Would you mind telling me what FG 8033 is better by: T.I. Factor value was observed for CC(=O)O.COc1ccc(OC[C@@H]2CNCC[C@H]2c2ccc(F)cc2)cc1 (single isomer, unassigned) ?
Ans. 33.33

###

Entries and their measured ED50 follow.
tested on: 5-HT uptake; assay: Test 173: potentiation of 5-HTP (5-hydroxytryptophane) induced hypermotility in mice (inhibition of 5HT uptake, or 5HT potentiation, test); format: in vivo, mice (female, NMRI strain); settings: Mus musculus, sc, read-out: Test 173 (dose increasing the activity to double the activity found with controls receiving 5-HTP alone; ED50); mice, s.c., 5-HTP 150 mg/kg i.p., motility 45-75 min after 5-HTP; water-soluble salt
Just the number please, in mg/kg, no unit attached.

[
  {
    "compound": "COc1ccc(OC[C@H]2CNCC[C@@H]2c2ccccc2)cc1 (single isomer, unassigned) [FG 4996, reference compound]",
    "numeric value": 9
  },
  {
    "compound": "COc1ccc(OC[C@@H]2CN(C)CC[C@H]2c2ccccc2)cc1 (single isomer, unassigned) [FG 4962, reference compound]",
    "numeric value": 3.8
  }
]

Qu. Would you mind telling me what ED50 value was observed for CN1CC[C@@H](c2ccc(F)cc2)[C@H](COc2ccc3c(c2)OCO3)C1 (single isomer, unassigned) [FG 7043, reference compound] ?
Ans. 4
